I'd appreciate it if you could supply viability, T/C values for the items below.
test system: 323965-272-R-J2-PDC complex spheroid viability; assay: Anticancer human tumor 323965-272-R-J2-PDC patient-derived pancreatic carcinoma cell line growth inhibition [CLK]; details: second compound 0.1 µM; first compound 0.316 µM; active compounds read low
Give bare numbers, in %.

Please report viability, T/C for every entry that follows.
1. COC1C=CCC(C)C(C)S(=O)(=O)NC(=O)c2ccc3c(c2)N(CC2CCC21)CC1(CCCc2cc(Cl)ccc21)CO3 (stereo not given) + CNC(=O)c1ccc(Nc2nc(OC3CCCC3)c3c(-c4ccc5nc(C)oc5c4)c[nH]c3n2)c(OC)c1
2. C=CC(=O)N1CCN(c2nc(=O)n(-c3c(C)ccnc3C(C)C)c3nc(-c4c(O)cccc4F)c(F)cc23)C(C)C1 (stereo not given) + CN1CCN(c2cc(C(=O)Nc3cc4cc(-c5cnn(C)c5)ccc4cn3)ccn2)CC1
3. CC1(C)CCC(CN2CCN(c3ccc(C(=O)NS(=O)(=O)c4ccc(NCC5CCOCC5)c([N+](=O)[O-])c4)c(Oc4cnc5[nH]ccc5c4)c3)CC2)=C(c2ccc(Cl)cc2)C1 + CNC(=O)c1ccc(Nc2nc(OC3CCCC3)c3c(-c4ccc5nc(C)oc5c4)c[nH]c3n2)c(OC)c1
4. C#Cc1c(F)ccc2cc(O)cc(-c3ncc4c(N5CC6CCC(C5)N6)nc(OCC56CCCN5CC(F)C6)nc4c3F)c12 (stereo not given) + CNC(=O)c1ccc(Nc2nc(OC3CCCC3)c3c(-c4ccc5nc(C)oc5c4)c[nH]c3n2)c(OC)c1
5. COc1c(OCCCN2CCOCC2)ccc2c3n(c(=NC(=O)c4cnc(N)nc4)nc12)CCN3 + CN1CCN(c2cc(C(=O)Nc3cc4cc(-c5cnn(C)c5)ccc4cn3)ccn2)CC1

68.8
39.8
78.8
62.5
21.4

---

tested on: 323965-272-R-J2-PDC complex spheroid viability; experiment: Anticancer human tumor 323965-272-R-J2-PDC cell line growth inhibition [CLK]; conditions: second compound 0.316 µM; first compound 10 µM; active compounds read low;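 note: spheroids exposed to agents for seven days before readout; percent of DMSO vehicle control wells so 100% = untreated growth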
READOUT_KIND: viability, T/C (%)
Answers are plain numbers, in %.

>>> obs_value("CC1(C)CCC(CN2CCN(c3ccc(C(=O)NS(=O)(=O)c4ccc(NCC5CCOCC5)c([N+](=O)[O-])c4)c(Oc4cnc5[nH]ccc5c4)c3)CC2)=C(c2ccc(Cl)cc2)C1 + CNC(=O)c1ccc(Nc2nc(OC3CCCC3)c3c(-c4ccc5nc(C)oc5c4)c[nH]c3n2)c(OC)c1")
7.29

Please report viability, T/C for every entry that follows.
1. C#Cc1c(F)ccc2cc(O)cc(-c3ncc4c(N5CC6CCC(C5)N6)nc(OCC56CCCN5CC(F)C6)nc4c3F)c12 (centres undefined) + CNC(=O)c1ccc(Nc2nc(OC3CCCC3)c3c(-c4ccc5nc(C)oc5c4)c[nH]c3n2)c(OC)c1
2. CC(=O)O[C@H]1C(=O)[C@@]2(C)[C@H]([C@H](OC(=O)c3ccccc3)[C@]3(O)C[C@H](OC(=O)[C@H](O)[C@@H](NC(=O)c4ccccc4)c4ccccc4)C(C)=C1C3(C)C)[C@]1(OC(C)=O)CO[C@@H]1C[C@@H]2O + CN1CCN(c2cc(C(=O)Nc3cc4cc(-c5cnn(C)c5)ccc4cn3)ccn2)CC1
3. CC1COCCN1c1cc(C2(S(C)(=N)=O)CC2)nc(-c2ccnc3[nH]ccc23)n1 (centres undefined) + CN1CCN(c2cc(C(=O)Nc3cc4cc(-c5cnn(C)c5)ccc4cn3)ccn2)CC1

[32.3, 16.9, 15.1]
